Molecular target: RnDYRK1A-kd (Rattus norvegicus)
MEASURED_PARAMETER: IC50

Ask: For the compound O=C1c2c([nH]c3c(Cl)cccc23)CCC1CN1CCCCC1 (racemic) , what IC50 is on record?
Result: > 10 µM

* * *

Biological target: CDK9 (Homo sapiens, UniProt P50750)
Sequence (P50750 whole entry, species assumed): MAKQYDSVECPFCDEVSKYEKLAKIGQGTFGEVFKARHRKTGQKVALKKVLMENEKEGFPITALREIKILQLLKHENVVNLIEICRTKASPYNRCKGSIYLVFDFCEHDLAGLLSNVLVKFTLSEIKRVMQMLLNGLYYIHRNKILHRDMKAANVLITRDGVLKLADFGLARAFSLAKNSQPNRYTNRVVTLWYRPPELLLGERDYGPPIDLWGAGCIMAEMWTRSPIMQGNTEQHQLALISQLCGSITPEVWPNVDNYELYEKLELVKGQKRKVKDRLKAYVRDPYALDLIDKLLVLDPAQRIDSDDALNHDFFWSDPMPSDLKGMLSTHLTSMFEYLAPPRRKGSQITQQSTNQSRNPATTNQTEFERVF
Sequence (O60563 whole entry partner, species assumed): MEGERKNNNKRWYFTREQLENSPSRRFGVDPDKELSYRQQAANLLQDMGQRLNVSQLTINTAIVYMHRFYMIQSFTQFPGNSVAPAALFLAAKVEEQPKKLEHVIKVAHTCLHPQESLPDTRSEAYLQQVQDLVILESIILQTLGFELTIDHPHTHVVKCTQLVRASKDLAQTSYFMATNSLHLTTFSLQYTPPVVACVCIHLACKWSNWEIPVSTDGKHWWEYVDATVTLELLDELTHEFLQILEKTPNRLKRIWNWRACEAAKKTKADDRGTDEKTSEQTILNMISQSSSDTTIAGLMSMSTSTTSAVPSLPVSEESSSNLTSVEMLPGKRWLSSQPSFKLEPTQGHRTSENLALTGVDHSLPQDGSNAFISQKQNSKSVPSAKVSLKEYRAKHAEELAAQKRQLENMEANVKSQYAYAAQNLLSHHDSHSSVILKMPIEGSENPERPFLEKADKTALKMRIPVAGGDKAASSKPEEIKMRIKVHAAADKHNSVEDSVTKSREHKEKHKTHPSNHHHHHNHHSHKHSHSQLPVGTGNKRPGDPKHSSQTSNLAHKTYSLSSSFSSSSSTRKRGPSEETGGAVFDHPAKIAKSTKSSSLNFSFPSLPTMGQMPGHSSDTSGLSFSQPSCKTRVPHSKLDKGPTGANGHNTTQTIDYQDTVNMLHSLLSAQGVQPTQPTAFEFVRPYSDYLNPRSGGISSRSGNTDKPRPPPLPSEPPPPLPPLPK
MEASURED_PARAMETER: IC50 (nM)
Dear colleague, please return just the value in nM, with no unit written.

O=C1NCCc2[nH]c3c(Cl)cccc3c21 [compound 14] = 880

Continue with the compound presented below.
Ask: Fill in the recorded IC50 for this compound, with CDK9 (Homo sapiens, UniProt P50750) as test system: O=C1NCCCc2[nH]c3c(Cl)cccc3c21 [compound 15]
Result: 2200
